- Assay Remarks: Water solubility of trehalose at ambient temperature (Experiment 1)
- Format: physicochemical
- Test Conditions: water, saturated in water, 25 °C, 24 hours; read-out: trehalose concentration (w/w %)
Endpoint Label: solubility thermodynamic at 24 h (mg/mL)
Respond with the bare value in mg/mL.

Req: # solubility thermodynamic at 24 h lookup, item OC[C@H]1O[C@H](O[C@H]2O[C@H](CO)[C@@H](O)[C@H](O)[C@H]2O)[C@H](O)[C@@H](O)[C@@H]1O [Trehalose, α,α-trehalose]
Resp: 436

----------
- Assay Remarks: Water solubility of trehalose at ambient temperature (Experiment 1)
- Type: physicochemical
- Test Conditions: water, 15 °C, 24 hours, anhydrous form; read-out: trehalose content (g) dissolved in 100 g water
Endpoint Label: solubility thermodynamic at 24 h (mg/mL)
Respond with the bare value in mg/mL.

Req: # solubility thermodynamic at 24 h lookup, item OC[C@H]1O[C@H](O[C@H]2O[C@H](CO)[C@@H](O)[C@H](O)[C@H]2O)[C@H](O)[C@@H](O)[C@@H]1O
Resp: 618

----------
- Assay Remarks: Water solubility of trehalose at ambient temperature (Experiment 1)
- Assay type: physicochemical
- Test Conditions: water, saturated in water, 30 °C, 24 hours; read-out: trehalose concentration (w/w %)
Endpoint Label: solubility thermodynamic at 24 h (mg/mL)
Respond with the bare value in mg/mL.

Req: # solubility thermodynamic at 24 h lookup, item OC[C@H]1O[C@H](O[C@H]2O[C@H](CO)[C@@H](O)[C@H](O)[C@H]2O)[C@H](O)[C@@H](O)[C@@H]1O
Resp: 464

----------
- Assay Remarks: Water solubility of trehalose at ambient temperature (Experiment 1)
- Type: physicochemical
- Test Conditions: water, 30 °C, 24 hours, anhydrous form; read-out: trehalose content (g) dissolved in 100 g water
- Method: The water solubility of trehalose at ambient temperature was studied by placing into a glass beaker 10 parts by weight of water and 20 parts by weight of hydrous crystalline trehalose, incubating the mixture under stirring conditions at 10°, 15°, 20°, 25°, 30° or 40° C. for 24 hours in an incubator, filtering the resulting mixture, measuring the trehalose concentration of the filtrate, and determining the water solubility of trehalose in an anhydrous form in 100 g water at each temperature.
Endpoint Label: solubility thermodynamic at 24 h (mg/mL)
Respond with the bare value in mg/mL.

Req: # solubility thermodynamic at 24 h lookup, item OC[C@H]1O[C@H](O[C@H]2O[C@H](CO)[C@@H](O)[C@H](O)[C@H]2O)[C@H](O)[C@@H](O)[C@@H]1O [Trehalose, α,α-trehalose]
Resp: 866

----------
- Assay Remarks: Water solubility of trehalose at ambient temperature (Experiment 1)
- Type: physicochemical
- Test Conditions: water, saturated in water, 40 °C, 24 hours; read-out: trehalose concentration (w/w %)
Endpoint Label: solubility thermodynamic at 24 h
The reply should read as a number followed by its unit.

Req: # solubility thermodynamic at 24 h lookup, item OC[C@H]1O[C@H](O[C@H]2O[C@H](CO)[C@@H](O)[C@H](O)[C@H]2O)[C@H](O)[C@@H](O)[C@@H]1O [Trehalose, α,α-trehalose]
Resp: 522 mg/mL

----------
- Assay Remarks: Water solubility of trehalose at ambient temperature (Experiment 1)
- Format: physicochemical
- Test Conditions: water, 20 °C, 24 hours, anhydrous form; read-out: trehalose content (g) dissolved in 100 g water
Endpoint Label: solubility thermodynamic at 24 h (mg/mL)
Respond with the bare value in mg/mL.

Req: # solubility thermodynamic at 24 h lookup, item OC[C@H]1O[C@H](O[C@H]2O[C@H](CO)[C@@H](O)[C@H](O)[C@H]2O)[C@H](O)[C@@H](O)[C@@H]1O [Trehalose, α,α-trehalose]
Resp: 689

src = patent US5892026A
